Kindly supply the reported growth inhibition values for the records listed here.
experiment: NCI Yeast Anticancer Drug Screen. Data for the mec2-1 strain (AID 157); details: S. cerevisiae mec2-1 strain, at 50.0 µM, stronger effect = higher value
About 79,000 compounds went through this panel and 15% of them were active in at least one assay; those are over-represented in the sample as a whole. The source made the active and inactive calls. No stated cut-off is given here; in the data, active means growth inhibition above about 70%; inactive means the rest.

Query COC(=O)[C@]1(C)CCC[C@]2(C)c3ccc(C(C)C)cc3C(=O)[C@@H](Br)[C@@H]12 yields growth inhibition of 51.9% (inactive)

Query Cc1ccc(/C=C2\CNC/C(=C\c3ccc(C)cc3)C2=O)cc1 yields growth inhibition of 86.4% (active)

Query O=C(O)c1cccc2cccc(-c3c4ccc(=O)c(O)c-4oc4c(O)c(O)ccc34)c12 yields growth inhibition of 90% (active)

Query COC1=CC(=O)c2c(O)c3c(c(O)c2C1=O)CC(C)(O)OC3 (configuration not stated) yields growth inhibition of 68.8% (inactive)

Query Clc1ccc(-n2ncc3c(NCCCN4CCOCC4)ncnc32)cc1 yields growth inhibition of 62.1% (inactive)

Query Nc1nc(N)c2cc(Sc3cccc(C(F)(F)F)c3)ccc2n1 yields growth inhibition of 53% (inactive)

Query CCOC(=O)C1(C)CCCC1N (configuration not stated) yields growth inhibition of -35% (inactive)

Query CCCCCCCCCCCC1N=C(N)N=C(N)N1c1cccc(Br)c1 (configuration not stated) yields growth inhibition of 97.7% (active)

Query O=C(c1ccccc1)c1cc2ccccc2oc1=O yields growth inhibition of 13.3% (inactive)

Query O=C(CBr)c1ccc(OC(=O)c2ccccc2)cc1 yields growth inhibition of 13.1% (inactive)

Query S=C(S)OCN1CCOCC1 yields growth inhibition of 98.2% (active)

Query Clc1ccccc1C(c1ccccc1)(c1ccccc1)n1ccnc1 yields growth inhibition of 99.8% (active)

----------
assay: NCI Yeast Anticancer Drug Screen. Data for the cln2 rad14 strain (AID 165);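 further: 0% = growth equal to vehicle treated cultures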; details: S. cerevisiae cln2 rad14 strain, at 5.0 µM (retest, dose inferred, filed as 0.5), stronger effect = higher value
About 79,000 compounds went through this panel and 15% of them were active in at least one assay; those are over-represented in the sample as a whole.
Kindly supply the reported growth inhibition values for the records listed here.
Please give a number only; it is taken to be in %.

Query O=C(Nc1cccc(C(F)(F)F)c1)Oc1ccc(Cl)c2cccnc12 yields growth inhibition of 90

Query CC(C)(C)CC(C)(C)c1ccc(OCCOCCSC(=N)N)cc1 yields growth inhibition of 13

Query Cc1nc([N+](=O)[O-])c(Sc2nncc(-c3ccccc3)n2)n1C yields growth inhibition of -5

Query O=S(=O)(O)c1cnccn1 yields growth inhibition of 0

Query CCCCCCCCCCCC1N=C(N)N=C(N)N1c1cccc(Br)c1 (configuration not stated) yields growth inhibition of 99

Query CCCCC(CC)CNC(=O)/C=C\C(=O)O (configuration not stated) yields growth inhibition of -3

Query O=C(c1ccc(O)c(Br)c1)c1ccc(O)c(Br)c1 yields growth inhibition of 83

Query Cc1cc(O)c2c(c1)C(=O)C(c1c(C)cc3c(c1O)C(=O)C1OC1C3=O)=CC2=O (configuration not stated) yields growth inhibition of 98

Query CCOC(=O)NC(/C=C/c1ccccc1)NC(=O)OCC yields growth inhibition of 5

Query Cc1nnc(N/N=C/c2ccc([N+](=O)[O-])o2)[nH]c1=O yields growth inhibition of 6

Query O=C(O)/C=C\C(=O)NNc1ccccc1 yields growth inhibition of 10

Query COc1ccc2c(c1)C(N)=C(c1ccccc1)C2=O yields growth inhibition of 17

Query CCC(CC)(c1ccccc1)C(O)c1ccccc1 (configuration not stated) yields growth inhibition of 7

Query CC1=C(C2=C(C)C(=O)C(=O)c3cc(C)ccc32)c2ccc(C)cc2C(=O)C1=O yields growth inhibition of 71

Query O=C1C=CC(=O)N1c1ccc(O)cc1 yields growth inhibition of -1

Query Oc1ccc2ccccc2c1N=Nc1nccs1 yields growth inhibition of 74

Query CCOC(=O)C(NC(C)=O)C(=O)c1ccccc1 (configuration not stated) yields growth inhibition of 11

Query Cc1ccc(/C=N/Nc2cc(C)c3cccc(C)c3n2)s1 yields growth inhibition of 3

Query CCSC(=O)c1ccc([N+](=O)[O-])o1 yields growth inhibition of 9

Query c1csc(-c2[nH]nc3c2CCc2ccccc2-3)c1 yields growth inhibition of -6

Query O=C(c1ccccc1)c1cc2ccccc2oc1=O yields growth inhibition of 4

Query CCc1cccc(CC)c1N1C(=O)C=CC1=O yields growth inhibition of 88

Query O=C(Cc1ccccc1)C(F)(F)F yields growth inhibition of 4

Query COc1ccc2nc3c4c(nccc4c2c1)-c1ncccc1C3=O yields growth inhibition of 61

Query COc1ccc2c(c1)C(OC)C1c3c(cc4c(c3-2)OCO4)CCN1C (configuration not stated) yields growth inhibition of 22

Query C[C@@]1(CO)[C@H](O)CC[C@@]2(C)[C@H]1CC[C@H]1C[C@@H]3C[C@@]12CC[C@@]3(O)COC(=O)CN yields growth inhibition of -12

Query O=[N+]([O-])c1ccc(Oc2ccccc2Cl)c([N+](=O)[O-])c1 yields growth inhibition of 3

Query O=[N+]([O-])c1ccc(C2N(Cc3ccc(Cl)cc3)CCN2Cc2ccc(Cl)cc2)cc1 yields growth inhibition of 51

Query CCOc1ccc(NC(=O)/C(=N\N)C(C(=O)OC)c2nc3ccc(Cl)cc3[nH]c2=O)cc1 (configuration not stated) yields growth inhibition of -25

Query C=CCO/N=C/c1cc(NC(=S)c2ccoc2C)ccc1Cl yields growth inhibition of -11

Query C=COC(=O)c1ccccc1C(=O)OCCCC yields growth inhibition of 7

Query CN1CCC(c2ccccc2)(c2ccccc2)C(=O)C1 yields growth inhibition of 15

Query CC(C)=C1C=C2CC[C@@H]3[C@](C)(CCC[C@@]3(C)C(=O)O)[C@H]2CC1 yields growth inhibition of -4

Query Clc1ccc(-n2ncc3c(NCCCN4CCOCC4)ncnc32)cc1 yields growth inhibition of 19

Query Cc1ccccc1N=NC(C#N)C#N yields growth inhibition of 39

Query Nc1nc2ncc(CNc3ccc(C(=O)NC(CCC(=O)NC(CCC(=O)NC(CCC(=O)NC(CCC(=O)NC(CCC(=O)O)C(=O)O)C(=O)O)C(=O)O)C(=O)O)C(=O)O)cc3)nc2c(=O)[nH]1 (configuration not stated) yields growth inhibition of 12

Query COc1cccc(NC(=O)c2c(SC)c(C#N)c(=O)n(N)c2N)c1 yields growth inhibition of 7

Query c1ccc(-c2cc3cc4ccccc4cn3c2)cc1 yields growth inhibition of 35

Query CN(C)CCSC1=Nc2ccc(Cl)cc2C(c2ccccc2Cl)N(C)C1 (configuration not stated) yields growth inhibition of 4

Query C=C1C(=O)OC2CC1C(OC(=O)/C=C/c1ccccc1)C/C(C)=C/CC/C(C)=C/CCC2(C)O (configuration not stated) yields growth inhibition of 84

Query CC(C)c1ccc(Nc2n[nH]c(=S)s2)cc1 yields growth inhibition of 22

Query OC(c1cc2ccc(C(F)(F)F)cc2c2cc(C(F)(F)F)ccc12)C1CCCCN1 (configuration not stated) yields growth inhibition of 44

Query O=C1c2ccccc2C(=O)c2c(O)c(Cl)cc(O)c21 yields growth inhibition of 5

Query CC1C2c3ccccc3C(c3ccccc32)C1CO (configuration not stated) yields growth inhibition of 4

Query O=C(CCl)N(c1ccccc1)c1ccccc1 yields growth inhibition of 1

Query CCOC(=O)/C(=C\c1ccc2ccccc2c1)P(=O)(OCC)OCC yields growth inhibition of 30

Query N=C(N)Sc1cccc[n+]1[O-] yields growth inhibition of 98
